# measurement.description: yeast display, Sf9 membrane polyspecificity reagent, FACS + sequencing; frameworks hold sequencing errors
measurement.name: polyreactivity (PSR sort gate)

Examples with answers:
[
  {
    "record.sequence": "QVQLVESGGGLVQAGGSLRLSGAASGRIFVRNSMGWYRQAPGKERELVAAISSNGGSTRYADSVKGRFTISRDNAKNTVYLQMNSQKPEDTAVYYCNAYYSHSPRYLKYDYWGQGTQVTVSS",
    "polyreactivity (PSR sort gate)": "high polyreactivity"
  },
  {
    "record.sequence": "QVQLVESGGGLVQAGGSLRLSCAASGSILGYYAMRWYRQAPGKERELVAAITASGGSTYYADSVKGRFTISRDNAKNTVYLQMNSLKPEDTAAYYCAAQYYATYGYWGQGTQVTVSS",
    "polyreactivity (PSR sort gate)": "low polyreactivity"
  },
  {
    "record.sequence": "QVQLVESGGGLVQAGGSLRLSCAASGFTFAYNAMGWYRQAPGKERELVAAISRSGARTYYADSVKGRFTISRDNAKNTVYLQMNSLKPEDTAVYYCNARDYTLYGYWGQGTQVTVSS",
    "polyreactivity (PSR sort gate)": "high polyreactivity"
  },
  {
    "record.sequence": "QVQLVESGGGLVQAGGSLRLSCAASGFIFDYYAMGWYRQAPGKERELVAAITRDGGGTYYADSVKGRFTISRDNAKNTVYFQMNSLKPEDTAVYYCAARTAYYHGSKYYYRGQGTQVTVSS",
    "polyreactivity (PSR sort gate)": "high polyreactivity"
  },
  {
    "record.sequence": "QVQLVESAGGLVQAGGILRLSCAASGRIFPYYDMGWYRQAPGKERELVAAITWNGGSTYYADSVKGRFTISRDNANNTVYLQMNSLKPEDTAVYYCAVEPYYYGEDYWGQGTQVTVSS",
    "polyreactivity (PSR sort gate)": "low polyreactivity"
  },
  {
    "record.sequence": "QVQLVESGGGLVQAGGSLRLSCAASGSTFLDNAMGWYRQAPGKERELVAAITQSGSSTYYADSVKGRFTISRDNAKNTVYLQMNSLKPEDTAVYYCAADVPNISFDYWGQGTQVTVSS",
    "polyreactivity (PSR sort gate)": "low polyreactivity"
  },
  {
    "record.sequence": "QVQLVESGGGLVQAGGSLRLSCAASGRTFYKYGMGWYRQAPGKERELVAAISWRTTSTYYADSVKGRFTISRDNAKNTVYLQMNSLKPEDTAVYYCNARRYLYFYGRGAQELDYWGQGTQVTVSS",
    "polyreactivity (PSR sort gate)": "high polyreactivity"
  },
  {
    "record.sequence": "QVQLVESGGGLVQAGGSLRLSCAASGNIFLSYAMGWYRQAPGKERELVAGISASGGRTYYADSVKGRFTISRDNAKNTVYLQMNSLKPEDTAVYYCATRNTRFHLDYWGQGTQVNVSS",
    "polyreactivity (PSR sort gate)": "high polyreactivity"
  },
  {
    "record.sequence": "QVQLVESGGGLVQAGGSLRLSSAASGSTLGVYAMGWYRQAPGKERELVAGITRGGGRTYYADSVKGRFTISRENAKNTVYLQMNSLKPEDTAVYYCNKGQRGPYDYWGQGTQVTVSS",
    "polyreactivity (PSR sort gate)": "high polyreactivity"
  },
  {
    "record.sequence": "QVQLEESGGCLVQAGGSLRLSCAASGSTFSNYAMGWYRLAPGKESELVAAISYSGARTDYADSVKGRFTISRDNAKHTVYFQMHSLKPEDTAVYYCAAQVLSRHANPYAYYYWGQGTQVTVSS",
    "polyreactivity (PSR sort gate)": "high polyreactivity"
  }
]

Turning now to a further record.
Supply recorded polyreactivity (PSR sort gate) for `QVQLVESGGGLVQAGGSLRLSCAASGSIFGLYAMGWYRQAPGKERELVAAISSSGGTTYYADSVKGRFTISRDNEKNTVYLQMNSLKPEDTAVYYCATDYYDDVTIGYDYWGQGTQVTVSS` here.
low polyreactivity

----------
# measurement.description: yeast display, Sf9 membrane polyspecificity reagent, FACS + sequencing; frameworks hold sequencing errors
measurement.name: polyreactivity (PSR sort gate)

[
  {
    "record.sequence": "QVQLVESGGGLVQAGGSLRLSGAATGSIIHPYAMGWYRQAPGKERELLAAISKSGGNTYYADSVKGRITISRDNAKNTVYLQMNSLKPEDTAVYYCAALDYWGQGTQVTVSS",
    "result": "low polyreactivity"
  },
  {
    "record.sequence": "QVQLVESGGGLVQAGGSLRLSCAASGSTFQLNAMGWYRQAPGKERELVAAISVRGGSTYYADSVKGRFTISRDTAKNTVYLQMHSLKPEETAVYYCATDSLYFLFAGDAVVRRPSYYWGQGTQVTVSS",
    "result": "high polyreactivity"
  },
  {
    "record.sequence": "QVQLVESGGGLVQAGGSLRLSCAASGYIFSYNAMGWYRQAPGKERELVAAITASGGGTYYADSVKGRFTISRDNAKNTVYLQMNSLKPEDTAVYYCAADFNDHYYWYGQDYDYWGQGTQVTVSS",
    "result": "low polyreactivity"
  },
  {
    "record.sequence": "QVQLVESGGGLVQAGGSLRLSCAASGFIFRTYAMGWYRQAPGKEREFVAAISSGSSTYYADSEKGRFTISRDNANNSVYLQMISLKPEDTAVYYCAARVPQQSRTWRGSTRSYRYGYWGQGTQVTVSS",
    "result": "high polyreactivity"
  }
]

Turning now to a further record.
Supply recorded polyreactivity (PSR sort gate) for `QDQLVESGGGLVQAGGSLRLSCAASGSIFPDYVMGWYRQAPGKERELVAAISASGGSTYYADSVKGRFTISRDNEKNTVYLKMNSLKPEDTAVYYCNASPKTYLRRKYDYWGQGTQVTVSS` here.
high polyreactivity

----------
# measurement.description: yeast display, Sf9 membrane polyspecificity reagent, FACS + sequencing; frameworks hold sequencing errors
measurement.name: polyreactivity (PSR sort gate)

[
  {
    "record.sequence": "QVQLVESGGGLVQAGGSLRLSCAASGSIFGFNAMGWYRQAPGKERELVAAISSGSTYYADSVKGRFTISRDNAKNTVYLQKNSLKPEDTAVYYCAATTGYSWYGYWGQGPQVTVSS",
    "polyreactivity (PSR sort gate)": "low polyreactivity"
  },
  {
    "record.sequence": "QVQLVESGGGLVQAGGSLRLSCAASGSTITYYTMGWYRQAPGKERELVAAISGSGGRTYYADSVKGRFTISRDNAKNTVYLQMNSLKPEDTAVYYCAAVYQLSRYDYWGQGTQVTVSS",
    "polyreactivity (PSR sort gate)": "high polyreactivity"
  },
  {
    "record.sequence": "QVQLVESGGGLVQAGGSLRLSCAASGSTFYFNAMGWSRQAPGKERELVAGISSGGSTYYADSVKGRFTISRDNAKNTVYLQMNSLKPEDTAVYYCAATWLVERPVSYTEYGYWGQGTQVTVSS",
    "polyreactivity (PSR sort gate)": "low polyreactivity"
  },
  {
    "record.sequence": "QVQLVESGGGLVQAGGSLSLICAASGRTSVVNAMGWYRKAPGKERELVAAITSGGSTHYADSVKGRFTISRDNAKNTVYLQMNSLKPEDTAVYYCTKRGHPARLGYYYWGQGTQVTVSS",
    "polyreactivity (PSR sort gate)": "low polyreactivity"
  },
  {
    "record.sequence": "QVQLVESGGGLVQAGGSLRLSCAASGRTFLWNAMGWYRQAPGKERELVAAITSGGRTTYADSVKGRFTISRDNAKNTVYLQMNSLKPEDTAVYYCAAVSANQDFDYWGQGTQVTVSS",
    "polyreactivity (PSR sort gate)": "high polyreactivity"
  },
  {
    "record.sequence": "QVQLVESGGGLVQAGGSLRLSCAASGFIITQSAMGWYRQAPGTERELVAAISGNGGRTYYADSVKGRFTISRDNAKNTVYLQMNSLKPEDTAVYYCAVTRPGRRYPFCYDYWGQGTQVTVSS",
    "polyreactivity (PSR sort gate)": "low polyreactivity"
  },
  {
    "record.sequence": "QVQLVESGGGLVEAGGSLRLSCAASGFTFHYYTMGWYRQAPVKERELVASINYSGGRTYYADSVKGRFTISRDIAMNTVYLQMNSLKPEDTAVYYCNARYKSTYYYWGQGTQVTVSS",
    "polyreactivity (PSR sort gate)": "high polyreactivity"
  },
  {
    "record.sequence": "QVQLVESGGGLVQAGGSLRLSCAASGRTFYQYDMGWYRQAPGKERDLVAAIDWSGGSTYYADSVKGRFTISRDNAKNTVYLQMNSLKPEDTAVYYCNADAYPHPVVGYDYWGQGTQVTVSS",
    "polyreactivity (PSR sort gate)": "low polyreactivity"
  }
]

Supply recorded polyreactivity (PSR sort gate) for `QVQLVESGGGIVQAGGSLRLSCAASGSIDWNAKGWYRQAPGKEREFVAAISSSGGRTSYADSVKGRFTISRDNAKNTVYLEMNSLKPEDTAVYYGAAAGSYDGDRYYYWGQGTQVTVSS` here.
high polyreactivity

Supply recorded polyreactivity (PSR sort gate) for `QVQLVESGGGLVQAGGSLRLSCAASGFTFFPYAMGWYRQAPGTERELVAAITETGGRTYYADSVKGRFTISRDNAKYTVYLQMNSLKPEDTAVYYCAKRGLHGYFVRGERGYWGQGTQVTVSS` here.
low polyreactivity

Supply recorded polyreactivity (PSR sort gate) for `KVQLVESGGGLVQAGGSLRLSCAASGTSSRYVMGLYRQSTGKERELVAAISWSGDSTYYADSVKGRFTISRDNAKNTVNLQMNSLKPEDTAVYYRAKDADFGLGATSYLEYDYWGQGTQVTVSS` here.
low polyreactivity

Supply recorded polyreactivity (PSR sort gate) for `QVQLVESGGGLVQAVGSLRLSCAACGSIFYWNALGWYRQAPGKEREFVASIRKSGGSTNYADSVKGRFTISRDNAMNTVYLQMNSMKPEDSAVYDCAAYSYYRGPIYDYWGQGTQVTVSS` here.
low polyreactivity

Supply recorded polyreactivity (PSR sort gate) for `QVQLVESGGGLVQAGGSLRLSCAASGSIFFINAMGWYRQAPGKERELVAAISSGGTTYYADSVKGRFTISRDNAKNTVYLQMNSLKPEDTAVYYCNAAGFPYAHTFFKGLVEYDSWGQGTQVTVSS` here.
low polyreactivity
